Origin of measurements: patent USRE47223

# system tested: T1, 5-domain TAT10772 (human)
# T1 construct: Recombinant portion of the extracellular domain, expressed in CHO cells; also called 5-mucin domain
# T1 chain: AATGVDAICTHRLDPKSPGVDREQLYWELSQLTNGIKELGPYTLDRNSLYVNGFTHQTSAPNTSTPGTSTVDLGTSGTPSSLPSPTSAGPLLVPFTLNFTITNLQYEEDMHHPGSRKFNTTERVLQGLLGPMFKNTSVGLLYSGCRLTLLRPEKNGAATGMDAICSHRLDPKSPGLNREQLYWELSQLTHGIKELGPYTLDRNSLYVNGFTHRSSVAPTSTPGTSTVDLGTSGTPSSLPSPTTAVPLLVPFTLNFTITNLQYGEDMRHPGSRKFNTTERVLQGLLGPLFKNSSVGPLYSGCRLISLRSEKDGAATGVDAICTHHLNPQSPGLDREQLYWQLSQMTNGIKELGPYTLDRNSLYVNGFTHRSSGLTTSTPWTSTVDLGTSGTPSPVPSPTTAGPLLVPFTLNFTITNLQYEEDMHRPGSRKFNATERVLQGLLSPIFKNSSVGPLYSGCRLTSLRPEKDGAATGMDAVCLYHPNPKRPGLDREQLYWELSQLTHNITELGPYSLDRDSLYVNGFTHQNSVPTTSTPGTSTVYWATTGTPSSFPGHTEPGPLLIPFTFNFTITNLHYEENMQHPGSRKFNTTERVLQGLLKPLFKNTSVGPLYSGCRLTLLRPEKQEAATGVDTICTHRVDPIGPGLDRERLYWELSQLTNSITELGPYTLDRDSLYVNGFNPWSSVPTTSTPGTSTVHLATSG
# assay method text: ELISA, IgG, 5′-domain TAT10772
assay endpoint: Kd (nM)
Write it as a number; the unit nM goes unstated.

Before answering, review these 4 worked examples.
{"binder": "3A5v1 (SEQ ID NO: 198) (antibody, V domains shown, Humanized IgG) VH: EVQLVESGGGLVQPGGSLRLSCAASGYSITNDYAWNWVRQAPGKGLEWVGYINYSGYTTYNPSLKSRFTISRDTSKNTLYLQMNSLRAEDTAVYYCARWASGLDYWGQGTLVTVSS VL: DIQMTQSPSSLSASVGDRVTITCKASDLIHNWLAWYQQKPGKAPKLLIYGATSLETGVPSRFSGSGSGTDFTLTISSLQPEDFATYYCQQYWTTPFTFGQGTKVEIKR", "measurement units": "nM", "Kd": 3}
{"binder": "3A5v5 (SEQ ID NO: 202) (antibody, V domains shown, Humanized IgG) VH: EVQLVESGGGLVQPGGSLRLSCAASGYSITNDYAWNWVRQAPGKGLEWVGYINYSGYTTYNPSLKSRFTISRDTSKNTFYLQMNSLRAEDTAVYYCARWDAGLTYWGQGTLVTVSS VL: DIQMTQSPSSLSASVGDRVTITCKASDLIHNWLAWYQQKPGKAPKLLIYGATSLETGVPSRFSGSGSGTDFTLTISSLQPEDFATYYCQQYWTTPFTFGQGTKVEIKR", "measurement units": "nM", "Kd": 10.2}
{"binder": "3A5v2 (SEQ ID NO: 199) (antibody, V domains shown, Humanized IgG) VH: EVQLVESGGGLVQPGGSLRLSCAASGYSITNDYAWNWVRQAPGKGLEWVGYINYSGYTTYNPSLKSRFTISRDTSKNTFYLQMNSLRAEDTAVYYCARWASGLSHWGQGTLVTVSS VL: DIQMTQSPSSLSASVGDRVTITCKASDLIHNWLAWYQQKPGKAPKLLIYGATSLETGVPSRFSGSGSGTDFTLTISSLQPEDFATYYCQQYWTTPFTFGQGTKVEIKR", "measurement units": "nM", "Kd": 3.7}
{"binder": "3A5v6 (SEQ ID NO: 203) (antibody, V domains shown, Humanized IgG) VH: EVQLVESGGGLVQPGGSLRLSCAASGYSITNDYAWNWVRQAPGKGLEWVGYINYSGYTTYNPSLKSRFTISRDTSKNTFYLQMNSLRAEDTAVYYCARWDSGLTYWGQGTLVTVSS VL: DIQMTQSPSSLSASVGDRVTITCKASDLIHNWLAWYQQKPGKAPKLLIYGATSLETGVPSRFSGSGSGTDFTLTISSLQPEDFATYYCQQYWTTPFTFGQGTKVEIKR", "measurement units": "nM", "Kd": 5.7}

Need Kd, item 3A5.F-graft (SEQ ID NO: 13), IgG (antibody, V domains shown, IgG) VH: EVQLVESGGGLVQPGGSLRLSCAASGYSITNDYAWNWVRQAPGKGLEWVGYINYSGYTTYNPSLKSRFTISRDNSKNTFYLQMNSLRAEDTAVYYCARWDGGLTYWGQGTLVTVSS VL: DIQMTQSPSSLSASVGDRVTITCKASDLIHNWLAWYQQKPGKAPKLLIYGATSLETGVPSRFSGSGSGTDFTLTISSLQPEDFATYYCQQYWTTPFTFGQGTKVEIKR
90.3
